system_name: Butyrylcholinesterase (Equus caballus, UniProt Q9N1N9)
Sequence (Q9N1N9 whole entry): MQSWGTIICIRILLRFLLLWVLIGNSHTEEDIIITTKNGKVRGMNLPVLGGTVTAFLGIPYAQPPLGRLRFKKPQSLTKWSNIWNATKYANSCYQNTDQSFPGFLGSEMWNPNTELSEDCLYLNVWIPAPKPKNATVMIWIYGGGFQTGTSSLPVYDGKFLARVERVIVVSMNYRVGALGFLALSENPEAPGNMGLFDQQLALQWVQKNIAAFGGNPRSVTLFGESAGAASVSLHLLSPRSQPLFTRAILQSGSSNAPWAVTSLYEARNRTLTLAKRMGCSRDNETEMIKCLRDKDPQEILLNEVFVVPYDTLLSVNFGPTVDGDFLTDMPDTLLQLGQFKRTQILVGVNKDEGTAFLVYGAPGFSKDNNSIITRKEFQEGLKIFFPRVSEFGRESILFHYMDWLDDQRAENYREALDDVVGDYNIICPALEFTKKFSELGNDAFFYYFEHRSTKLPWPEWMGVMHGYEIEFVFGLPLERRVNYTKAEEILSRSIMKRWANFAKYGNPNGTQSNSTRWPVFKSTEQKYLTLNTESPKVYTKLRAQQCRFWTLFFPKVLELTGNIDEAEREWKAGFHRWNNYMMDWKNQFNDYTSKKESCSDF
pIC50: −log10 of the molar value.
Short version: pIC50 at least 8 is yes, less is no.

- molecular_string: "COc1ccc(CNCCCCCCNc2c3c(nc4ccccc24)CCCC3)cc1OC"
  assigned_label: "yes"
- molecular_string: "COc1ccc(CNCCCCCCCCCNc2c3c(nc4ccccc24)CCCC3)cc1OC"
  assigned_label: "yes"
- molecular_string: "COc1cc(CNCCCCCCCCNc2c3c(nc4ccccc24)CCCC3)cc(OC)c1OC"
  assigned_label: "yes"
- molecular_string: "COc1cc(CNCCCCNc2c3c(nc4ccccc24)CCCC3)cc2c1OCO2"
  assigned_label: "no"
- molecular_string: "COc1ccc(CNCCCCCCCNc2c3c(nc4ccccc24)CCCC3)cc1OC"
  assigned_label: "yes"
- molecular_string: "COc1cc(CNCCCCCCCCCNc2c3c(nc4ccccc24)CCCC3)cc(OC)c1OC"
  assigned_label: "yes"
- molecular_string: "COc1cc(CNCCCCCCNc2c3c(nc4ccccc24)CCCC3)cc(OC)c1OC"
  assigned_label: "yes"
- molecular_string: "COc1cc(CNCCCCCCNc2c3c(nc4ccccc24)CCCC3)cc2c1OCO2"
  assigned_label: "yes"
- molecular_string: "COc1cc(CNCCCCCNc2c3c(nc4ccccc24)CCCC3)cc2c1OCO2"
  assigned_label: "no"
- molecular_string: "COc1ccc(CNCCCCCCCCNc2c3c(nc4ccccc24)CCCC3)cc1OC"
  assigned_label: "yes"
- molecular_string: "COc1cc(CNCCCCCCCNc2c3c(nc4ccccc24)CCCC3)cc(OC)c1OC"
  assigned_label: "yes"

----------
assay_summary: Inhibition of amyloid beta (1-42) self-mediated aggregation at 20 uM by thioflavin T fluorescence method
Listed next: entries and their corresponding inhibition.

- molecular_string: "COc1cc(CNCCCCCCCCCNc2c3c(nc4ccccc24)CCCC3)cc2c1OCO2"
  inhibition (%): 68.5
- molecular_string: "COc1cc(CNCCCCNc2c3c(nc4ccccc24)CCCC3)cc2c1OCO2"
  inhibition (%): 63.8
- molecular_string: "COc1cc(CNCCCCCCNc2c3c(nc4ccccc24)CCCC3)cc2c1OCO2"
  inhibition (%): 67.1
- molecular_string: "COc1cc(CNCCCCCCCNc2c3c(nc4ccccc24)CCCC3)cc2c1OCO2"
  inhibition (%): 65
- molecular_string: "COc1cc(CNCCCCCCCCNc2c3c(nc4ccccc24)CCCC3)cc2c1OCO2"
  inhibition (%): 65.2
- molecular_string: "COc1cc(CNCCCCCNc2c3c(nc4ccccc24)CCCC3)cc2c1OCO2"
  inhibition (%): 63.1

----------
Listed next: entries and their corresponding pIC50.
system_name: Acetylcholinesterase (Electrophorus electricus, UniProt O42275)
Sequence (O42275 whole entry): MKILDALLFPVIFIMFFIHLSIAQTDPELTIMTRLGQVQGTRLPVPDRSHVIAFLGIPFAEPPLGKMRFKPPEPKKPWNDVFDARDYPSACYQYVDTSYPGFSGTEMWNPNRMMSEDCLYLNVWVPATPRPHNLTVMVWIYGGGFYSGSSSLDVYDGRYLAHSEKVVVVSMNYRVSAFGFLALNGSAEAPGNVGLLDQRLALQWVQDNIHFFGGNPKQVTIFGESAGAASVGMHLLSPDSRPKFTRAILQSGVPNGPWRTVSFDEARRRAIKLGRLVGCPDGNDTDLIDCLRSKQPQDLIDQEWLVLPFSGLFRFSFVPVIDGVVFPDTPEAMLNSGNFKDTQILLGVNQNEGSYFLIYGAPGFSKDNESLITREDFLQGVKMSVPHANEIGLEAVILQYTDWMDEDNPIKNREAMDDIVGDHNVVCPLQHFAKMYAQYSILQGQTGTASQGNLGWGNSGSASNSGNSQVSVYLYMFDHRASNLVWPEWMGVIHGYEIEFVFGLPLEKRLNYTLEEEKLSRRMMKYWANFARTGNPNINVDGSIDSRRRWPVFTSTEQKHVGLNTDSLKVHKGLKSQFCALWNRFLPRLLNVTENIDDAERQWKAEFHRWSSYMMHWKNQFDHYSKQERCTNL
pIC50: −log10 of the molar value.
test_readout: pIC50

- molecular_string: "COc1cc(CNCCCCCNc2c3c(nc4ccccc24)CCCC3)cc2c1OCO2"
  test_readout: "pIC50"
  observed_result: 7.10
- molecular_string: "COc1cc(CNCCCCCCCCCNc2c3c(nc4ccccc24)CCCC3)cc(OC)c1OC"
  test_readout: "pIC50"
  observed_result: 7.69
- molecular_string: "COc1ccc(CNCCCCCCCCCNc2c3c(nc4ccccc24)CCCC3)cc1OC"
  test_readout: "pIC50"
  observed_result: 7.60
- molecular_string: "COc1cc(CNCCCCCCCCNc2c3c(nc4ccccc24)CCCC3)cc(OC)c1OC"
  test_readout: "pIC50"
  observed_result: 8.01
- molecular_string: "COc1cc(CNCCCCCCNc2c3c(nc4ccccc24)CCCC3)cc(OC)c1OC"
  test_readout: "pIC50"
  observed_result: 7.65
- molecular_string: "COc1ccc(CNCCCCCCCCNc2c3c(nc4ccccc24)CCCC3)cc1OC"
  test_readout: "pIC50"
  observed_result: 7.95
- molecular_string: "COc1cc(CNCCCCNc2c3c(nc4ccccc24)CCCC3)cc2c1OCO2"
  test_readout: "pIC50"
  observed_result: 6.95
- molecular_string: "COc1cc(CNCCCCCCCNc2c3c(nc4ccccc24)CCCC3)cc(OC)c1OC"
  test_readout: "pIC50"
  observed_result: 7.76
- molecular_string: "COc1cc(CNCCCCCCCCCNc2c3c(nc4ccccc24)CCCC3)cc2c1OCO2"
  test_readout: "pIC50"
  observed_result: 7.73
- molecular_string: "COc1ccc(CNCCCCCCCNc2c3c(nc4ccccc24)CCCC3)cc1OC"
  test_readout: "pIC50"
  observed_result: 7.62

----------
What follows is a record of IC50 for Acetylcholinesterase (Electrophorus electricus).

- molecular_string: "COc1cc(CNCCCCCCCNc2c3c(nc4ccccc24)CCCC3)cc2c1OCO2"
  system_name: "Acetylcholinesterase (Electrophorus electricus)"
  IC50: "18.4 nM"
- molecular_string: "COc1ccc(CNCCCCCCNc2c3c(nc4ccccc24)CCCC3)cc1OC"
  system_name: "Acetylcholinesterase (Electrophorus electricus)"
  IC50: "30.9 nM"
- molecular_string: "COc1cc(CNCCCCCCNc2c3c(nc4ccccc24)CCCC3)cc2c1OCO2"
  system_name: "Acetylcholinesterase (Electrophorus electricus)"
  IC50: "20.5 nM"
- molecular_string: "COc1cc(CNCCCCCCCCNc2c3c(nc4ccccc24)CCCC3)cc2c1OCO2"
  system_name: "Acetylcholinesterase (Electrophorus electricus)"
  IC50: "7.98 nM"

----------
What follows is a record of IC50 for Butyrylcholinesterase (Equus caballus, UniProt Q9N1N9).

- molecular_string: "COc1cc(CNCCCCCCCCNc2c3c(nc4ccccc24)CCCC3)cc2c1OCO2"
  IC50 / nM: 7.94
- molecular_string: "COc1cc(CNCCCCCCCCCNc2c3c(nc4ccccc24)CCCC3)cc2c1OCO2"
  IC50 / nM: 11.4
- molecular_string: "COc1cc(CNCCCCCCCNc2c3c(nc4ccccc24)CCCC3)cc2c1OCO2"
  IC50 / nM: 9.73
